Target: T1, His-tagged, full-length PCSK9 (human, UniProt A8T644 31-152; Q8NBP7 153-692)
T1 construct: Target protein of the PCSK9/EGF(A) TR-FRET assay (10 nM); also called His-PCSK9; proprotein convertase subtilisin/kexin type 9
T1 sequence (A8T644 31-152 limits assumed, chain 1 of 2): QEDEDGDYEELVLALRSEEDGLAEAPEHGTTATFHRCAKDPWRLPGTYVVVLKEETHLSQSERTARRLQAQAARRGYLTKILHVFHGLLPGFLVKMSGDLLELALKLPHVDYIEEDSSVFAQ
T1 sequence (A8T644 other isoform, or with tags, fused parts or gaps limits assumed, chain 2 of 2): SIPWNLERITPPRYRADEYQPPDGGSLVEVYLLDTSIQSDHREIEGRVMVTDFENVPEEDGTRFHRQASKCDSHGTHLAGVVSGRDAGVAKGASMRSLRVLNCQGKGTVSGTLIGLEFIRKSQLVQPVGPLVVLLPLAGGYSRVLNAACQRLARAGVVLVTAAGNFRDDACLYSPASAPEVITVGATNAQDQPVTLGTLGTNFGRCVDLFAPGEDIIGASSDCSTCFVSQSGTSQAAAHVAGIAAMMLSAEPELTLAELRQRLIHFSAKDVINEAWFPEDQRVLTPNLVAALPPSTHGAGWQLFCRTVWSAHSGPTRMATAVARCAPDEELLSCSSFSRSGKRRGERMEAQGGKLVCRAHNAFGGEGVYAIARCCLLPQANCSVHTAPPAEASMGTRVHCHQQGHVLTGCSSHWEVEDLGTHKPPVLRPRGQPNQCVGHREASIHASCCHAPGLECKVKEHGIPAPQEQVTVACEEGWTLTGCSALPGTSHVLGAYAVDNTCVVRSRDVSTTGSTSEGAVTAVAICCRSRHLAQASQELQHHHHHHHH
Assay: TR-FRET competition; competitor EGF(A)-Fc on His-PCSK9
Bridge positions count the residues as written; N and C are the ends. Square brackets hold non-standard residues; d marks the D form. hArg = N=C(N)NCCCC[C@H](N)C(=O)O
Readout type: IC50

Challenge: For the binder Ac-CRLPWNLQ[hArg]IGLPC-NH2 (disulfide 1-14; SMILES CC[C@H](C)[C@@H]1NC(=O)[C@H](CCCCNC(=N)N)NC(=O)[C@H](CCC(N)=O)NC(=O)[C@H](CC(C)C)NC(=O)[C@H](CC(N)=O)NC(=O)[C@H](Cc2c[nH]c3ccccc23)NC(=O)[C@@H]2CCCN2C(=O)[C@H](CC(C)C)NC(=O)[C@H](CCCNC(=N)N)NC(=O)[C@@H](NC(C)=O)CSSC[C@@H](C(N)=O)NC(=O)[C@@H]2CCCN2C(=O)[C@H](CC(C)C)NC(=O)CNC1=O) [Compound 117] , what IC50 is on record?
Response given: > 50 µM

Sourced from patent US20190177366A1
